The reported measurements were obtained from patent US20260327193A1.

Entries and their IC50
Biological target: Plasma Kallikrein (Homo sapiens)
Sequence (P03952 391-638 limits assumed): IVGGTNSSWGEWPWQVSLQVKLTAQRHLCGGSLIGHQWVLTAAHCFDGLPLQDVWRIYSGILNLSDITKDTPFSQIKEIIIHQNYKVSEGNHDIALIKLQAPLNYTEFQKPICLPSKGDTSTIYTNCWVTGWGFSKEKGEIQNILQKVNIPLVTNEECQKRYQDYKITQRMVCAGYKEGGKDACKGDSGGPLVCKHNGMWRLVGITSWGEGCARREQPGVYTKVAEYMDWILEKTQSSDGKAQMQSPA
Sequence (P03952 20-390 partner limits assumed): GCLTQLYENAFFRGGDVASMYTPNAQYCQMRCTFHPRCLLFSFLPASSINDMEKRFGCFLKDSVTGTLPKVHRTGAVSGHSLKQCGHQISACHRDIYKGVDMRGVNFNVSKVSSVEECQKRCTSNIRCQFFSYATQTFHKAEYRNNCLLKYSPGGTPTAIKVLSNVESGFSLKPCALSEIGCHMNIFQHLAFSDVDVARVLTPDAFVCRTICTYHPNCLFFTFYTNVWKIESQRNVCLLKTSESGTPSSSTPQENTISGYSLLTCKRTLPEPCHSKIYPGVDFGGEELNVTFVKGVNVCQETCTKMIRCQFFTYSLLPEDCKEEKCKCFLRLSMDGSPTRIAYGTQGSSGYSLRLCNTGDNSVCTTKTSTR
Test: Plasma kallikrein activity in pooled human plasma
Type: biochemical
Design: Plasma Kallikrein activity was also measured in pooled human plasma; from tissue; host or cells: pooled human plasma
Details: Z-FR-AMC substrate, activated with 10% Actin FS solution, 10 minutes, read-out: Pooled Human Plasma PKal IC50
Method: Plasma kallikrein protease inhibition assay. Two methods for determining the IC50 of a test compound against Plasma Kallikrein are provided. Second, Plasma Kallikrein activity was also measured in pooled human plasma. First, a 10% Actin FS solution was prepared in assay buffer. Each test compound was dissolved in DMSO and delivered to the reaction mixture along with Z-FR-AMC substrate and pooled human plasma. […] The fluorescence signal was recorded every 30 seconds for a total of 10 minutes.
Measurement name: IC50

INSERT INTO results (structure_string, result) VALUES
  ('COc1cc(CNC(=O)c2cnn(Cc3ccc(C(C)(C)C#N)cc3)c2)cc(F)c1C(=N)N', '100 to 1000 nM'),
  ('CC(C)(C#N)c1ccc(Cn2cc(C(=O)NCc3ccc(C(=N)N)c(F)c3)cn2)cc1', '< 100 nM'),
  ('COCc1c(C(=O)NCc2ccc(C(=N)N)cc2)cnn1Cc1ccc(C(C)(C)C#N)cc1', '< 100 nM'),
  ('N#CCCc1ccc(Cn2cc(C(=O)NCc3ccc(C(=N)N)cc3)cn2)cc1', '< 100 nM'),
  ('COCCc1ccc(Cn2cc(C(=O)NCc3ccc(C(=N)N)c(F)c3)cn2)cc1', '< 100 nM'),
  ('CC(C)(C#N)c1ccc(Cn2cc(C(=O)NCc3ccc(C(=N)N)cc3)cn2)cc1', '< 100 nM'),
  ('N#Cc1ccc(-c2ccc(Cn3cc(C(=O)NCc4ccc(C(=N)N)cc4)cn3)cc2)cc1', '< 100 nM'),
  ('COCc1c(C(=O)NCc2ccc(C(=N)N)c(F)c2)cnn1Cc1ccc(CC#N)cc1', '> 1000 nM'),
  ('COCc1c(C(=O)NCc2ccc(C(=N)N)cc2)cnn1Cc1ccc(CC#N)cc1', '100 to 1000 nM');

----------
target: Plasma Kallikrein (Homo sapiens); assay: Plasma kallikrein activity in pooled human plasma; format: biochemical; set-up: Plasma Kallikrein activity was also measured in pooled human plasma; from tissue; host or cells: pooled human plasma; conditions: Z-FR-AMC substrate, activated with 10% Actin FS solution, 10 minutes, read-out: Pooled Human Plasma PKal IC50
pIC50: −log10 of the molar value.
Here the recorded pIC50 is given for each entry.
Measurement name: pIC50

INSERT INTO assay_data (structure_string, measurement_name, result) VALUES
  ('N#Cc1ccc(Cc2ccc(Cn3cc(C(=O)NCc4ccc(C(=N)N)cc4)cn3)cc2)cc1', 'pIC50', '6.00 to 7.00'),
  ('N=C(N)c1ccc(CNC(=O)c2cnn(Cc3ccc(CO)cc3)c2)cc1', 'pIC50', '> 7.00'),
  ('CNC(=O)Cc1ccc(Cn2cc(C(=O)NCc3ccc(C(=N)N)cc3)cn2)cc1', 'pIC50', '> 7.00'),
  ('COCCc1ccc(Cn2cc(C(=O)NCc3ccc(C(=N)N)cc3)cn2)cc1', 'pIC50', '> 7.00'),
  ('N#Cc1ccn(Cc2ccc(Cn3cc(C(=O)NCc4ccc(C(=N)N)cc4)cn3)cc2)c1', 'pIC50', '> 7.00'),
  ('CN(C)C(=O)Cc1ccc(Cn2cc(C(=O)NCc3ccc(C(=N)N)cc3)cn2)cc1', 'pIC50', '> 7.00'),
  ('Cc1c(C(=O)NCc2ccc(C(=N)N)cc2)cnn1Cc1ccc(C(C)(C)C#N)cc1', 'pIC50', '> 7.00'),
  ('N#Cc1cccc(Cc2ccc(Cn3cc(C(=O)NCc4ccc(C(=N)N)cc4)cn3)cc2)c1', 'pIC50', '> 7.00'),
  ('N#CCc1ccc(Cn2cc(C(=O)NCc3ccc(C(=N)N)cc3)cn2)cc1', 'pIC50', '> 7.00'),
  ('N#CCc1ccc(Cn2ncc(C(=O)NCc3ccc(C(=N)N)cc3)c2C2CC2)cc1', 'pIC50', '6.00 to 7.00');
